# Assay details: Pharmacokinetic parameters for Zolmitriptan following oral administration of Zolmitriptan tablets to subjects with different healthy conditions.
# Assay type: ADME, organism-based
# Condition info: human, in vivo, read-out: Excretion
Metric: dose excreted (%)
Your answer is read as %, so omit the unit and give the number.

**Q:** // dose excreted lookup, key: `CN(C)CCc1c[nH]c2ccc(C[C@H]3COC(=O)N3)cc12`
**A:** 8
